The reported numbers originate from paper PMC6996867.

assay-overview: In vivo pharmacokinetic studies in mice
cond: mouse, plasma
quantity-measured: half-life (h)
Only the number, expressed in h, is required.

Sure, the documented half-life for C[C@H]1Cc2c([nH]c3cc(F)c(F)cc23)[C@@]2(N1)C(=O)Nc1ccc(Cl)cc12 [Compound 20a] is 3
